I'd be grateful if you could share measured IC50 for these entries.
target or system: chymotrypsin (Bos taurus)
test: Chymotrypsin inhibitive activity (method of Muramatsu et al., acetyl-L-tyrosine ethyl ester substrate, Hestrin Method)
Type: biochemical
settings: pH 8.0 tris-hydrochloric acid buffer, 10 minutes preincubation, 30° C., 30 minutes, absorbance at 530 nm, read-out: Chymotrypsin inhibitive activity [50% inhibition concentration (M)]
Return type: number; implicit unit M.

*Q* Name the recorded IC50 for CC(C)N1CCN(C(=O)c2ccc(OC(=O)CC3=CCCc4ccccc43)cc2)CC1 .
*A* 3e-06

*Q* Name the recorded IC50 for CC(C)N1CCN(C(=O)c2ccc(OC(=O)Cc3cccc4ccccc34)cc2)CC1 .
*A* 5e-07

*Q* Name the recorded IC50 for Cc1ccc2c(c1)CCCC2C(=O)Oc1ccc(C(=O)N2CCN(C(C)C)CC2)cc1 (stereo not shown) .
*A* 6e-07

*Q* Name the recorded IC50 for COc1ccc2c(c1)C(C(=O)Oc1ccc(C(=O)N3CCN(C)CC3)cc1)CCC2 (stereo not shown) .
*A* 8e-07
